Test system: SK-MEL-28 melanoma
Assay: NCI-60 one-dose screen, 48 h (100 = growth as untreated, 0 = no growth, -100 = all killed)
Settings: 10 µM unless noted
This is part of a sample that, as a whole, favours compounds with a hit. Of some 83,000 tested, about 20% had one in any assay.
Listed below: growth values for each entry.
Hi! Could you send only the number? It should be in %, unit omitted.

Example entries and their recorded answers appear below.
molecule: O=CNc1ccc2c(c1)Cc1cccc(NC=O)c1-2
growth [%]: 112

molecule: O=C1/C(=C/c2ccc(Cl)cc2)SC(=S)N1CCc1ccc(O)cc1
growth [%]: 101

molecule: O=C1NC(=Nc2ccc(O)cc2)S/C1=C\c1cccc(Cl)c1
growth [%]: 94.7

molecule: CC(=O)c1cc2c(N)c(C(=O)Nc3cccc(F)c3C)sc2nc1C
growth [%]: 97.4

molecule: COC(=O)[C@@H]1CCCN1C(=O)[C@@H]1CCCN1C(=O)[C@H](Cc1ccccc1)NC(=S)Nc1cc(C(F)(F)F)cc(C(F)(F)F)c1
growth [%]: 85.3

Looking up COc1ccc(NC(=O)c2ccc(/C=C/C(=O)c3ncc[nH]3)cc2)cc1 , I found its growth recorded as 102

Looking up Cc1nc2c3c(-c4ccccc4)c(-c4ccccc4)oc3ncn2n1 , I found its growth recorded as 118

Looking up C=CC(=O)Nc1cccc(-c2nc(SC)nc(NCc3ccccc3)c2C#N)c1 , I found its growth recorded as 82.4

Looking up NC(CSC(c1ccccc1)(c1ccccc1)c1ccc(Cl)cc1)C(=O)O (stereo not given) , I found its growth recorded as 33.4

Looking up COc1cc(-c2ccc3c(c2)NC(=O)/C3=C\c2ccc[nH]2)ccc1O , I found its growth recorded as 37.5

---

Listed below: growth values for each entry.
Test system: HCC-2998 colon
Assay: NCI-60 one-dose screen, 48 h (100 = growth as untreated, 0 = no growth, -100 = all killed)
Conditions: 10 µM unless noted
Compounds without any hit were thinned out: in the full panel of roughly 83,000, 20% have a hit. Active and inactive are the calls of the source. Rule for the calls: active = growth percent below 10; inactive = the rest.

Example entries and their recorded answers appear below.
compound: CC1=C[C@H]2c3c(c(O)c(O)c4oc5c(C)cccc5c(=O)c34)[C@H](c3cc(O)c(O)c4oc5c(C)cccc5c(=O)c34)[C@H]2C(C)(C)C1
test-value: 11.2% (inactive)
//
compound: O=C(CN(C(=O)Cn1c(=O)n2nnnc2c2ccccc21)c1ccccc1C(F)(F)F)Nc1ccc(C(F)(F)F)cc1
test-value: 106% (inactive)
//
compound: CN(C)c1ccc(N=Nc2ccc(Br)cn2)c(O)c1
test-value: 34.3% (inactive)

Value (growth, HCC-2998 colon) for record COc1ccc(SC2c3ccc(C)cc3Oc3nc(N)c(C#N)c(N)c32)cc1 (centres undefined) = -78.9% (active)

---

Test system: IGROV1 ovarian
Assay: NCI-60 one-dose screen, 48 h (100 = growth as untreated, 0 = no growth, -100 = all killed)
Settings: 10 µM unless noted
This is part of a sample that, as a whole, favours compounds with a hit. Of some 83,000 tested, about 20% had one in any assay.
// thresholds for growth classes: class 0 (below 50%), class 1 (50% to below 80%), class 2 (80% or more)

structure-as-smiles: O=C(Nc1ccc(Cl)cc1)c1cc2cc(F)ccc2cc1O
label-class: class 0
//
structure-as-smiles: O=C1c2cccc3cccc(c23)C(=O)N1CCCCN1CCN(CCCCOc2ccc(-c3nc4ccc(N5CCOCC5)cc4[nH]3)cc2)CC1
label-class: class 1
//
structure-as-smiles: COc1ccc(-n2nc(C)c3c(Nc4ccc(NC(=O)Nc5cc(C(F)(F)F)ccc5F)cc4)ncnc32)cc1
label-class: class 0
//
structure-as-smiles: Cc1ccc(OC(=O)c2ccc(Cl)cc2)cc1
label-class: class 2
//
structure-as-smiles: CC(=O)Nc1ccc(S(=O)(=O)Nc2cccc(-c3nc(-c4ccc(NC(=O)c5cccnc5)cc4Cl)no3)c2)cc1
label-class: class 1
//
structure-as-smiles: C(=N/Nc1ncc(-c2cc3cc(-c4ccccc4)ccc3o2)s1)/c1cccs1
label-class: class 2

Which category does the recorded growth put CN(C)S(=O)(=O)c1ccc(S(=O)(=O)Nc2cccc(Cl)c2N2CCCCC2)cc1 in? class 2

---

Tested on: T-47D breast
Assay: NCI-60 one-dose screen, 48 h (100 = growth as untreated, 0 = no growth, -100 = all killed)
Details: 10 µM unless noted
Compounds without any hit were thinned out: in the full panel of roughly 83,000, 20% have a hit.
measurement-name: growth (%)
Hi! Could you send only the number? It should be in %, unit omitted.

Example entries and their recorded answers appear below.
compound: CCCCCCN(CCCCCC)CCC(O)c1ccc2ccccc2c1 (stereo not drawn)
experimental-target: T-47D breast
quantity-unit: %
test-value: 34.4
//
compound: C=C(C)[C@@H]1CC[C@]2(C(=O)OC)CC[C@]3(C)[C@H](CC[C@@H]4[C@@]5(C)C/C(=C/c6ccc(OC)cc6)C(=O)C(C)(C)[C@@H]5CC[C@]43C)[C@@H]12
experimental-target: T-47D breast
quantity-unit: %
test-value: 101
//
compound: C=C(C)[C@@H]1CC[C@]2(C(N)=O)CC[C@]3(C)[C@H](CC[C@@H]4[C@@]5(C)C/C(=C/c6ccco6)C(=O)C(C)(C)[C@@H]5CC[C@]43C)[C@@H]12
experimental-target: T-47D breast
quantity-unit: %
test-value: 80

Looking up C=CC(COC(c1ccccc1)(c1ccccc1)c1ccccc1)N(CC)CC (stereo not drawn) , I found its growth recorded as 54.8

---

Listed below: growth values for each entry.
Tested on: IGROV1 ovarian
Assay: NCI-60 one-dose screen, 48 h (100 = growth as untreated, 0 = no growth, -100 = all killed)
Settings: 10 µM unless noted
Experimental: Growth inhibition of the IGROV1 human tumor cell line is measured as a screen for anti-cancer activity. Cells are grown in 96 well plates and exposed to the test compound for 48 hours. Compounds are tested at a single concentration, which is 10^-5 M for most compounds. The reported endpoint is percent growth (GI% or GIPRCNT), where numbers from 0 - 100% represent growth inhibition, and numbers from -100% - 0 represent cell death. For example, a value of 40 represents 60% growth inhibition. […]
The panel holds about 83,000 compounds, 20% with a hit somewhere; the sample as a whole holds those more often.
Hi! Could you send only the number? It should be in %, unit omitted.

Example entries and their recorded answers appear below.
compound: COc1ccc(-c2cc(Nc3ccnc(N4CCOCC4)n3)on2)cc1
quantity-unit: %
growth: 43.1

compound: CC(O)CN(CC(C)O)c1ccc2c(c1)Cc1cc([N+](=O)[O-])ccc1-2 (stereo not given)
quantity-unit: %
growth: 55.6

compound: O=C(CCl)Oc1ccc(-c2ccccc2)c(Br)c1
quantity-unit: %
growth: 112

compound: FC(F)(F)c1nc2c(NCc3ccc(-c4ccccc4)cc3)cccc2[nH]1
quantity-unit: %
growth: 85.8

compound: COC(=O)[C@]12CCC(C)(C)C[C@H]1[C@H]1C(=O)C[C@@H]3[C@@]4(C)c5c([nH]c6ccccc6c5=O)C(C)(C)[C@@H]4CC[C@@]3(C)[C@]1(C)CC2
quantity-unit: %
growth: 94.5

Looking up O=C(N/N=C/c1c[nH]c2ccccc12)c1cc(-c2ccccc2)on1 , I found its growth recorded as 87.2

Looking up CC1=NN(c2nc(-c3ccc(Cl)cc3)c(C#N)c(N3CCOCC3)n2)C(=O)C1 , I found its growth recorded as 81

Looking up COc1cccc(/C=C2\Oc3cc(OCCN4CCCC4)ccc3C2=O)c1 , I found its growth recorded as 98.6

Looking up COc1ccc(SC2c3cc(OC)c(OC)cc3Oc3nc(N)c(C#N)c(N)c32)cc1 (stereo not given) , I found its growth recorded as -77.1

Looking up CCCCn1cnc2c(Sc3c([N+](=O)[O-])ncn3C)nc(N)nc21 , I found its growth recorded as 89.3

---

Tested on: UACC-257 melanoma
Test: NCI-60 one-dose screen, 48 h
Conditions: 10 µM unless noted
Compounds without any hit were thinned out: in the full panel of roughly 83,000, 20% have a hit. The source made the active and inactive calls. How the source made its calls: active means growth percent below 10; inactive means the rest.
Valid outcomes are listed here; reply with one: T = active, F = inactive

compound: CC(O)CN(CC(C)O)c1ccc2c(c1)Cc1cc([N+](=O)[O-])ccc1-2 (stereo unspecified)
label-class: F
//
compound: COc1ccc(/C=C/c2nc3ccccc3nc2/C=C/c2ccc(OC)cc2)cc1
label-class: F
//
compound: Cc1ccc(NC(=O)/C=C/c2ccccc2)c(C(N)=O)c1
label-class: F
//
compound: Nc1n[nH]c2ccc([C@@H]3Nc4ccc5[nH]ncc5c4[C@H]4C5C=CC(C5)[C@@H]34)cc12 (stereo partly specified)
label-class: F
//
compound: O=C1CSC(=S)N1CCc1ccc(O)cc1
label-class: F
//
compound: Cc1ccc(C2Oc3ccccc3C3CC(c4cccs4)=NN32)cc1 (stereo unspecified)
label-class: F
//
compound: O=C1OCC2=C1C(c1ccncc1)c1cc3c(cc1N2CCO)OCO3 (stereo unspecified)
label-class: F
//
compound: C=CC(=O)Nc1cccc(-c2nc(SC)nc(Nc3cccc(OC)c3)c2C#N)c1
label-class: F

Recorded call for COC(=O)c1cccc(NC(=O)c2ccc(-c3cccc(N)c3)o2)c1 ? F

Recorded call for COc1cc2c(cc1-c1c(C)noc1C)ncc1nc(C3CCC(F)(F)CC3)n([C@H](C)COC(F)F)c12 ? F

Recorded call for CNC(=O)c1cc(Oc2ccc(NC(=O)Nc3ccc(Cl)c(OC(F)(F)F)c3)c(F)c2)ccn1 ? T

This collection of values is drawn from PubChem BioAssay (NCI).
